Tested Target: KRas G12D mutant (Homo sapiens, UniProt P01116, G12D)
Construct: fused on or other part: His tag, used for capture on nickel-coated plates
Procedure Summary: Ras GTP binding domain inhibition assay (Cy3-GTP/Cy5-GTP competition)
Assay Conditions: at 20 μM, with SOS; read-out: KRas G12D mutant + SOS: % inh.
The reader will find reported inhibition at 20 µM values listed item by item below.

See these solved cases before continuing.
{"Compound": "CO[C@H]1CCC(Nc2nc(-c3nccn3C)nc3sc(-c4ccn(C)n4)c(-c4ccccc4)c23)C1 (some centres unmarked) [drawing 995]", "Tested Target": "KRas G12D mutant (Homo sapiens, UniProt P01116, G12D)", "Reported Value": "51 to 75%"}
{"Compound": "COC1CCN(c2nc(-c3nccn3C)nc3sc(-c4ccn(C)n4)c(-c4ccccc4)c23)CC1 [drawing 991]", "Tested Target": "KRas G12D mutant (Homo sapiens, UniProt P01116, G12D)", "Reported Value": "26 to 50%"}
{"Compound": "O=C(NC1CCC1)c1nc(-c2ccccn2)nc(O)c1O [drawing 944]", "Tested Target": "KRas G12D mutant (Homo sapiens, UniProt P01116, G12D)", "Reported Value": "26 to 50%"}
{"Compound": "COc1c(O)nc(-c2ccccn2)nc1Oc1ccc(C(=O)N(C)C)cc1 [drawing 1014]", "Tested Target": "KRas G12D mutant (Homo sapiens, UniProt P01116, G12D)", "Reported Value": "26 to 50%"}
{"Compound": "COC1CCN(c2nc(-c3nccn3C)nc3sc(-c4cnc(C5CC5)o4)c(-c4ccccc4)c23)C1 (centres unmarked) [drawing 977]", "Tested Target": "KRas G12D mutant (Homo sapiens, UniProt P01116, G12D)", "Reported Value": "51 to 75%"}

Input: Item COC1CCN(c2nc(-c3nccn3C)nc3sc(-c4cccnc4)c(-c4ccccc4)c23)C1 (centres unmarked) [drawing 979] has what recorded inhibition at 20 µM?
Output: 51 to 75%

Input: Moving on to CO[C@H]1CC[C@@H](Nc2nc(-c3nccn3C)nc3sc(C(=O)N4CCOCC4)c(-c4ccccc4)c23)C1 [drawing 1062]
Output: 51 to 75%

Input: Now give it for Cn1ccnc1-c1nc(O)c(O)c(C(=O)NC2CCC2)n1 [drawing 960] too.
Output: 26 to 50%

Input: Next up: COC1CCN(C(=O)c2sc3nc(-c4nccn4C)nc(N[C@H]4C[C@@H](OC)C4)c3c2-c2ccccc2)C1 (some centres unmarked) [drawing 1058]
Output: 51 to 75%

Input: COc1cccc(-c2sc3nc(-c4nccn4C)nc(NC4CCC(OC)C4)c3c2-c2ccccc2)c1F (centres unmarked) [drawing 1018] ?
Output: 51 to 75%

Input: Same for CN(C)CCOCCNc1nc(-c2nccn2C)nc2sc(-c3ccn(C)n3)c(-c3ccccc3)c12 [drawing 1042]
Output: 51 to 75%

----------
Tested Target: Rac-1 (Homo sapiens)
Procedure Summary: Ras GTP binding domain inhibition assay (Cy3-GTP/Cy5-GTP competition)
Assay Conditions: with SOS, read-out: Rac-1 + SOS: % inh.
Quantity Kind: inhibition at 20 µM

Worked cases, inhibition at 20 µM given:
{"Molecule": "COc1c(F)cccc1-c1sc2nc(-c3nccn3C)nc(NC3CCC(OC)C3)c2c1-c1ccccc1 (stereo not shown) [drawing 1021]", "inhibition at 20 µM": "51 to 75%"}
{"Molecule": "O=C(NC1CCC1)c1nc(-c2ccccn2)nc(O)c1O [drawing 944]", "inhibition at 20 µM": "76 to 100%"}

From here, focus on the item given below.
Input: Any idea what its inhibition at 20 µM is? The molecule is CO[C@@H]1CCC(Nc2nc(-c3nccn3C)nc3sc(-c4ccn(C)n4)c(-c4ccccc4)c23)C1 (stereo partly shown) [drawing 994]
Output: 26 to 50%

Every entry's value here was drawn from patent US20250296938A1.
